Origin of the recorded values: patent US20040192720A1

Molecular target: human B2 bradykinin receptors (CHO-hB2 cell membranes) (Homo sapiens)
Construct: purchased Receptor Biology, Inc. (Baltimore, Md.); host or cells: CHO-hB2 cells (membranes)
Sequence (P30411 whole entry): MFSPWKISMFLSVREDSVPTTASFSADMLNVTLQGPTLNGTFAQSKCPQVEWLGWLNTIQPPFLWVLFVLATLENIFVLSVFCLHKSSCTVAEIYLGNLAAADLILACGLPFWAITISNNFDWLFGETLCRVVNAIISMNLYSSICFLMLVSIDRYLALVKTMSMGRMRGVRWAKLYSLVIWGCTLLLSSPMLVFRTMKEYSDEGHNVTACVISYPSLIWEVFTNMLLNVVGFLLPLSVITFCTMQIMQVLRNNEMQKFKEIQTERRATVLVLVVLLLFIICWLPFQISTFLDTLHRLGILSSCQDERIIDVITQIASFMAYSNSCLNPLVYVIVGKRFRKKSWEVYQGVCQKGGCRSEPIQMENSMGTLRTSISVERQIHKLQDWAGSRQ
Assay: [35S]GTPγS Binding Assay in CHO-hB2 Cell Membranes
Format: biochemical
Conditions: bradykinin-stimulated [35S]GTPγS binding
Procedure: [^35S]GTPγS Binding Assay in CHO-hB2Cell Membranes CHO-hB2 cell membranes were purchased from Receptor Biology, Inc. (Baltimore, Md.). 10 mg/mL of membrane protein was suspended in 10 mM TRIS-HC pH 7.2, 2 mM EDTA, 10% sucrose. […] The pellet membranes (40 μg/mL) were preincubated with SPA (scintillation proximity assay) beads (20 mg/mL) at 25 C. ° for 45 min in the assay buffer. […] The radioactivity was quantified on a Packard Top Count, and calculated. […]
measurement_name: Functional Activity (word result)

Cc1ccc2cccc(OCc3c(Cl)ccc(NC(=O)Cc4ccc(C(=O)c5ccc(C#N)cc5)n4C)c3Cl)c2n1: Weak antagonist
Cc1ccc2cccc(OCc3c(C)ccc(N(C)C(=O)Cc4ccc(C(=O)c5cnccc5C#N)n4C)c3C)c2n1: Antagonist
Cc1ccc2cccc(OCc3c(Cl)ccc(N(C)C(=O)Cc4ccc(C(=O)c5ccc(C(=O)N(C)C)cc5)n4C)c3Cl)c2n1: Antagonist
Cc1ccc2cccc(OCc3c(Cl)ccc(N(C)C(=O)Cc4ccc(C(=O)c5ccc(Cl)nc5)n4C)c3Cl)c2n1: Antagonist
Cc1ccc2cccc(OCc3c(C)ccc(N(C)C(=O)CCc4ccc(C(=O)c5ccc(Cl)nc5)n4C)c3C)c2n1: Antagonist

Prompt: // map Cc1ccc2cccc(OCc3c(C)ccc(N(C)C(=O)Cc4ccc(C(=O)c5cnccc5Cl)n4C)c3C)c2n1 to recorded Functional Activity (word result) (system: human B2 bradykinin receptors (CHO-hB2 cell membranes) (Homo sapiens))
Response: Antagonist

Prompt: Entry to check: CSc1ccc(C(=O)c2ccc(CC(=O)N(C)c3ccc(Cl)c(COc4cccc5ccc(C)nc45)c3Cl)n2C)cc1
Response: Antagonist

Prompt: # iterate: Cc1ccc2cccc(OCc3c(Cl)ccc(N(C)C(=O)Cc4ccc(C(=O)CN5CCC(Cc6ccccc6)CC5)n4C)c3Cl)c2n1
Response: No effect

Prompt: Would you mind doing CCn1c(CC(=O)N(C)c2ccc(Cl)c(COc3cccc4ccc(C)nc34)c2Cl)ccc1C(=O)c1ccc(C#N)cc1 as well?
Response: Antagonist

Prompt: Also Cc1ccc2cccc(OCc3c(C)ccc(N(C)C(=O)CCc4ccc(C(=O)c5cccs5)n4C)c3C)c2n1 , if possible.
Response: Weak antagonist
